# Experimental target: Solute carrier family 12 member 5 (Homo sapiens, UniProt Q9H2X9)
# Assay notes: concentration-response of KCC2 transport modulators – cell-based, HEK293 KCC2, FluoZin-2 fluorescence, dose response (AID 1736)
Measurement kind: pEC50
pEC50 is a log-scale quantity: -log10 of the concentration expressed in molar.

1. Cn1c(SCc2ccccc2Cl)nc2ccccc21 :: 5.40

(Q) So what's the measured pEC50 for this one? O=C(O)c1cc(-c2ccc(F)cc2F)ccc1O
(A) 4.97

(Q) So what's the measured pEC50 for this one? O=C(c1ccc(S(=O)(=O)c2cccc(Cl)c2)c([N+](=O)[O-])c1)N1CCN(c2ccccn2)CC1
(A) 5.44

(Q) So what's the measured pEC50 for this one? COC(=O)[C@@H](NC(=O)O[C@@H]1C(=O)c2ccc(OC)cc2O[C@H]1c1cccc(C(F)(F)F)c1)C(C)C
(A) 5.39

(Q) So what's the measured pEC50 for this one? O=C(c1cc2c(s1)-c1ccccc1OC2)N1CCC2(CC1)OCCO2
(A) 4.52

(Q) So what's the measured pEC50 for this one? O=C(Cn1nc2ccccc2n1)NN=Cc1cc(Cl)cc([N+](=O)[O-])c1O
(A) 4.55

(Q) So what's the measured pEC50 for this one? CC1CCN(C(=O)c2ccc(SCc3ccccc3F)c([N+](=O)[O-])c2)CC1
(A) 5.71

(Q) So what's the measured pEC50 for this one? Cc1ccc(/C=C2\SC(=S)N(c3c(C)n(C)n(-c4ccccc4)c3=O)C2=O)cc1
(A) 5.93

(Q) So what's the measured pEC50 for this one? COc1ccc(S(=O)(=O)N2CCC(C(=O)N3CCc4ccccc4C3)CC2)cc1C
(A) 4.84

###

Listing of entries alongside the reported EC50.
# Experimental target: Solute carrier family 12 member 5 (Homo sapiens)
# Assay notes: concentration-response of KCC2 transport modulators – cell-based, HEK293 KCC2, FluoZin-2 fluorescence, dose response (AID 1736)
# number only, unit µM dropped from output

1) O=C(NCC1CCCO1)C(c1cccs1)N(C(=O)c1ccc(-c2ccccc2)[nH]1)C1CCCC1 (stereo not given) :: 5.57
2) N#Cc1c(NC(=O)CSc2nc(N)cc(=O)[nH]2)sc2c1CCCCCC2 :: 0.461
3) CCCC1=NN2C(=N)/C(=C\c3cc(C)n(-c4cc(C)cc(C)c4)c3C)C(=O)N=C2S1 :: 7.66
4) CCC(Cc1ccccc1)NC(=O)CN(C)S(=O)(=O)c1ccc2c(c1)c(=O)n(C)c(=O)n2C (stereo not given) :: 2410

# ---- query compound ----
(Q) Recorded EC50 for O=C(Nc1cccnc1)c1ccc(COc2ccccc2Br)o1 with Solute carrier family 12 member 5 (Homo sapiens), please?
(A) 5.19

###

# Experimental target: Solute carrier family 12 member 5 (Homo sapiens)
# Assay notes: concentration-response of KCC2 transport modulators – cell-based, HEK293 KCC2, FluoZin-2 fluorescence, dose response (AID 1736)
Listing of entries alongside the reported pEC50.
pEC50 is a log-scale quantity: -log10 of the concentration expressed in molar.

1) O=S1(=O)N=C(N2CCN(Cc3ccccc3)CC2)c2ccccc21 :: 5.50

(Q) So what's the measured pEC50 for this one? COc1ccccc1N1CCN(C(=S)NC(=O)/C=C/c2ccccc2)CC1
(A) 3.96

(Q) So what's the measured pEC50 for this one? O=C(O)c1cc([N+](=O)[O-])ccc1NCc1ccccc1
(A) 5.30

(Q) So what's the measured pEC50 for this one? O=[N+]([O-])c1ccc(CSc2nnc(SCc3ccccc3)s2)cc1
(A) 4.95

(Q) So what's the measured pEC50 for this one? O=C(O)/C=C/c1cn(Cc2ccccc2Cl)nc1-c1ccccc1
(A) 5.69

###

Listing of entries alongside the reported EC50.
# Experimental target: UniProt Q9H2X9
# Assay notes: concentration-response of KCC2 transport modulators – cell-based, HEK293 KCC2, FluoZin-2 fluorescence, dose response (AID 1736)
# number only, unit µM dropped from output

Reference set (3 entries):
1) O=C(Cc1csc(-c2ccccc2)n1)NCc1ccc(F)cc1 :: 19.4
2) O=C(Nc1ccc(Cc2ccncc2)cc1)c1cccc([N+](=O)[O-])c1 :: 9.28
3) COc1cccc(CNC(=O)CSc2ccc(-c3cccs3)nn2)c1 :: 34.2

(Q) So what's the measured EC50 for this one? CN(Cc1ccccc1)c1nc2nonc2nc1N1CCCC(CN2CCCC2=O)C1 (stereo not given)
(A) 9050

(Q) So what's the measured EC50 for this one? O=c1c(-c2cnn(-c3ccccc3)c2)coc2cc(O)ccc12
(A) 20.1

###

# Experimental target: Solute carrier family 12 member 5 (Homo sapiens, UniProt Q9H2X9)
# Sequence (Q9H2X9 whole entry): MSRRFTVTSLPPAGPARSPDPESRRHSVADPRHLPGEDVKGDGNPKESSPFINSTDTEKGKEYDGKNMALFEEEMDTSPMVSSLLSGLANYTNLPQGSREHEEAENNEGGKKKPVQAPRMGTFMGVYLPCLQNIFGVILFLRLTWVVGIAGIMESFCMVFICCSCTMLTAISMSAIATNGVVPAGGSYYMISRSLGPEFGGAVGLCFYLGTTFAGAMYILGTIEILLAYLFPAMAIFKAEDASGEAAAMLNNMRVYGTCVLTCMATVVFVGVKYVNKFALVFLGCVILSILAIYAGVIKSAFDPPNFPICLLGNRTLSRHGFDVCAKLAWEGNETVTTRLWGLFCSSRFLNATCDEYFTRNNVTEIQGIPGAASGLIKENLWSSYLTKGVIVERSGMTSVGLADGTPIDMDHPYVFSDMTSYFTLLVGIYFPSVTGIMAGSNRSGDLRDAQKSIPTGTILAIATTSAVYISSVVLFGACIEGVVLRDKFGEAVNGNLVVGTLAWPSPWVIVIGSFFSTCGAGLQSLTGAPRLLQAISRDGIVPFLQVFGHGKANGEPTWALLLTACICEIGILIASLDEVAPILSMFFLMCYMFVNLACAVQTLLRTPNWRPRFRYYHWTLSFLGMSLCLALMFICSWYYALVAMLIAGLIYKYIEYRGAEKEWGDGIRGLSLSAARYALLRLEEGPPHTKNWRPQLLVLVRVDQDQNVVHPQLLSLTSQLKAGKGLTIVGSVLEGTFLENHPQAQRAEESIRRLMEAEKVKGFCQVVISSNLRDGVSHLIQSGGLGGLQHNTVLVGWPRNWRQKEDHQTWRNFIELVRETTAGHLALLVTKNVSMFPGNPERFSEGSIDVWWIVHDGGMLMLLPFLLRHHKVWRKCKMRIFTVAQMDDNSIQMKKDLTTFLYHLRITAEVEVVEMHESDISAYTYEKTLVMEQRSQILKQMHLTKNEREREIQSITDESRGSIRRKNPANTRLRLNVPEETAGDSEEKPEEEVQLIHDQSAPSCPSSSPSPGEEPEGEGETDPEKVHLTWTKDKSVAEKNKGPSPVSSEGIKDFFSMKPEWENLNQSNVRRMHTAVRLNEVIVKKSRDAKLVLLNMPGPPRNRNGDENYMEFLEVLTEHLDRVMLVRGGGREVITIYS
# Assay notes: concentration-response of KCC2 transport modulators – cell-based, HEK293 KCC2, FluoZin-2 fluorescence, dose response (AID 1736)
pEC50: −log10 of the molar value.
Tick condition met if pEC50 is 5 or greater. Tick condition not met if pEC50 is less than 5.

1) O=C(/C=C/c1ccco1)N1CCC(Cc2ccccc2)CC1 :: condition met

(Q) Hi team, for Fc1cccc(F)c1C=NNC(=S)Nc1cccnc1 , is the recorded pEC50 at or above 5?
(A) condition met

(Q) Hi team, for O=C(COC(=O)c1cc([N+](=O)[O-])ccc1NCCO)c1ccccc1 , is the recorded pEC50 at or above 5?
(A) condition not met

(Q) Hi team, for O=C(CSc1ccc(-c2ccccc2)nn1)c1ccccc1 , is the recorded pEC50 at or above 5?
(A) condition met

(Q) Hi team, for O=C(C1CCN(c2nc3ccc(Br)cc3s2)CC1)N1CCC2(CC1)OCCO2 , is the recorded pEC50 at or above 5?
(A) condition met

(Q) Hi team, for O=C(C1CC1)N1CCc2cc(S(=O)(=O)NC3CCN(Cc4ccccc4)CC3)ccc21 , is the recorded pEC50 at or above 5?
(A) condition not met

(Q) Hi team, for CCc1cc(C(=O)N2CCCC(CNC(=O)c3ccc(-c4ccccc4)cc3)C2)no1 (stereo unspecified) , is the recorded pEC50 at or above 5?
(A) condition met

(Q) Hi team, for NC(=S)NN=C1C(=O)N(Cc2ccc(F)cc2)c2ccccc21 , is the recorded pEC50 at or above 5?
(A) condition not met

(Q) Hi team, for Cc1ccc(-c2csc(NC(=O)CCNC(=O)c3ccccc3Cl)n2)cc1 , is the recorded pEC50 at or above 5?
(A) condition met
